Assay: in vivo
Details: male, Wistar, rat, po, 10 mg/kg
Starred links: 1 amine or outer side, 2 acyl side, 3 side chain; linkers in the order of their positions; H or OH if unused. Non-standard residues stand in square brackets, D forms with d. Residues, ends and D or L forms follow the SMILES beside them. X1 = CC(C)C[C@H](NC(=S)[C@H](Cc1ccc(O)cc1)N[*:1])C(=O)[*:2]; X3 = CC(C)C[C@H](N[*:1])C(=S)N[C@H](CC(C)C)C(=O)[*:2]; NMeL = CN[C@@H](CC(C)C)C(=O)O
The label Fulfilled is reserved for MRT strictly under 2 h; Not fulfilled covers values equal to or above it.

Q) Check if MRT falls below 2 h for CC(C)C[C@@H]1NC(=O)[C@H](Cc2ccc(O)cc2)NC(=O)[C@H]2CCCN2C(=O)[C@H](CC(C)C)NC(=O)[C@H](CC(C)C)NC(=O)[C@@H](CC(C)C)NC1=O [compound 10, cyclo(-D-Leu^1-Leu-Leu-D-Pro-Tyr-Leu^6-)] (cyclo(LL[dP]YL[dL])) .
A) Fulfilled

Q) Check if MRT falls below 2 h for CC(C)C[C@@H]1NC(=O)[C@H](Cc2ccc(O)cc2)NC(=O)[C@H]2CCCN2C(=O)[C@H](CC(C)C)NC(=O)[C@H](CC(C)C)N(C)C(=O)[C@@H](CC(C)C)NC1=O [10h] (cyclo(L[dL][NMeL]L[dP]Y)) .
A) Fulfilled

Q) Check if MRT falls below 2 h for CC(C)C[C@@H]1NC(=O)[C@@H](CC(C)C)NC(=O)[C@H](CC(C)C)N(C)C(=O)[C@H](Cc2ccc(O)cc2)NC(=O)[C@H]2CCCN2C(=O)[C@H](CC(C)C)NC1=O [10k] (cyclo(LL[dP]Y[NMeL][dL])) .
A) Not fulfilled

Q) Check if MRT falls below 2 h for CC(C)C[C@@H]1NC(=O)[C@@H](CC(C)C)NC(=S)[C@H](CC(C)C)NC(=O)[C@H](Cc2ccc(O)cc2)NC(=O)[C@H]2CCCN2C(=O)[C@H](CC(C)C)NC1=O [10f] (cyclo(LL[dP]Y[X3])) .
A) Not fulfilled

Q) Check if MRT falls below 2 h for CC(C)C[C@@H]1NC(=O)[C@@H](CC(C)C)NC(=O)[C@H](CC(C)C)NC(=S)[C@H](Cc2ccc(O)cc2)NC(=O)[C@H]2CCCN2C(=O)[C@H](CC(C)C)NC1=O [10e] (cyclo(LL[dP][X1][dL])) .
A) Not fulfilled

====

Kindly state remaining at 36 h for each of the entries shown.
Experiment: in vitro
Details: both, human, plasma
Starred links: 1 amine or outer side, 2 acyl side, 3 side chain; linkers in the order of their positions; H or OH if unused. Non-standard residues stand in square brackets, D forms with d. Residues, ends and D or L forms follow the SMILES beside them. X6 = O=C([C@H](Cc1ccc(O)cc1)NC(=S)[C@H]1CCCN1[*:1])[*:2]; X5 = CC(C)C[C@H](NC(=S)[C@H](CC(C)C)N[*:1])C(=O)[*:2]; X4 = CC(C)C[C@H](N[*:1])C(=S)N1CCC[C@@H]1C(=O)[*:2]
Write the number in % without appending the unit.

// recorded remaining at 36 h for CC(C)C[C@@H]1NC(=O)[C@H](Cc2ccc(O)cc2)NC(=S)[C@H]2CCCN2C(=O)[C@H](CC(C)C)NC(=O)[C@H](CC(C)C)NC(=O)[C@@H](CC(C)C)NC1=O [10d] (cyclo(LL[X6]L[dL])) : 35

// recorded remaining at 36 h for CC(C)C[C@@H]1NC(=O)[C@H](Cc2ccc(O)cc2)NC(=O)[C@H]2CCCN2C(=O)[C@H](CC(C)C)NC(=O)[C@H](CC(C)C)NC(=O)[C@@H](CC(C)C)NC1=O [compound 10, cyclo(-D-Leu^1-Leu-Leu-D-Pro-Tyr-Leu^6-)] (cyclo(LL[dP]YL[dL])) : 19

// recorded remaining at 36 h for CC(C)C[C@@H]1NC(=O)[C@H](Cc2ccc(O)cc2)NC(=O)[C@H]2CCCN2C(=S)[C@H](CC(C)C)NC(=O)[C@H](CC(C)C)NC(=O)[C@@H](CC(C)C)NC1=O [10c] (cyclo(L[dL]L[X4]Y)) : 34

// recorded remaining at 36 h for CC(C)C[C@@H]1NC(=O)[C@H](Cc2ccc(O)cc2)NC(=O)[C@H]2CCCN2C(=O)[C@H](CC(C)C)NC(=S)[C@H](CC(C)C)NC(=O)[C@@H](CC(C)C)NC1=O [10b] (cyclo(L[dL][X5][dP]Y)) : 33

====

Experiment: in vitro
Details: pig, simulated intestinal fluid
Starred links: 1 amine or outer side, 2 acyl side, 3 side chain; linkers in the order of their positions; H or OH if unused. Non-standard residues stand in square brackets, D forms with d. Residues, ends and D or L forms follow the SMILES beside them. X2 = CC(C)C[C@H](NC(=S)[C@@H](CC(C)C)N[*:1])C(=O)[*:2]; NMeL = CN[C@@H](CC(C)C)C(=O)O
parameter: remaining at 0.5 h (%)
Write the number in % without appending the unit.

// recorded remaining at 0.5 h for CC(C)C[C@@H]1NC(=O)[C@H](Cc2ccc(O)cc2)NC(=O)[C@H]2CCCN2C(=O)[C@H](CC(C)C)N(C)C(=O)[C@H](CC(C)C)NC(=O)[C@@H](CC(C)C)NC1=O [10i] (cyclo(L[NMeL][dP]YL[dL])) : 81

// recorded remaining at 0.5 h for CC(C)C[C@@H]1NC(=O)[C@H](Cc2ccc(O)cc2)NC(=O)[C@H]2CCCN2C(=O)[C@H](CC(C)C)NC(=O)[C@H](CC(C)C)NC(=S)[C@@H](CC(C)C)NC1=O [10a] (cyclo(L[dP]YL[X2])) : 66

// recorded remaining at 0.5 h for CC(C)C[C@@H]1NC(=O)[C@@H](CC(C)C)NC(=O)[C@H](CC(C)C)N(C)C(=O)[C@H](Cc2ccc(O)cc2)NC(=O)[C@H]2CCCN2C(=O)[C@H](CC(C)C)NC1=O [10k] (cyclo(LL[dP]Y[NMeL][dL])) : 75

====

Experiment: in vitro
Settings: pig, simulated intestinal fluid
Non-standard residues stand in square brackets, D forms with d. Residues, ends and D or L forms follow the SMILES beside them. NMeL = CN[C@@H](CC(C)C)C(=O)O; dNMeL = CN[C@H](CC(C)C)C(=O)O
Kindly state remaining at 4 h for each of the entries shown.
Write the number in % without appending the unit.

// recorded remaining at 4 h for CC(C)C[C@@H]1NC(=O)[C@@H](CC(C)C)N(C)C(=O)[C@H](CC(C)C)NC(=O)[C@H](Cc2ccc(O)cc2)NC(=O)[C@H]2CCCN2C(=O)[C@H](CC(C)C)NC1=O [10g] (cyclo(LL[dP]YL[dNMeL])) : 0

// recorded remaining at 4 h for CC(C)C[C@@H]1NC(=O)[C@H](Cc2ccc(O)cc2)NC(=O)[C@H]2CCCN2C(=O)[C@H](CC(C)C)N(C)C(=O)[C@H](CC(C)C)NC(=O)[C@@H](CC(C)C)NC1=O [10i] (cyclo(L[NMeL][dP]YL[dL])) : 32

====

Assay: in vivo
Details: male, Wistar, rat, iv
Starred links: 1 amine or outer side, 2 acyl side, 3 side chain; linkers in the order of their positions; H or OH if unused. Non-standard residues stand in square brackets, D forms with d. Residues, ends and D or L forms follow the SMILES beside them. X1 = CC(C)C[C@H](NC(=S)[C@H](Cc1ccc(O)cc1)N[*:1])C(=O)[*:2]; X2 = CC(C)C[C@H](NC(=S)[C@@H](CC(C)C)N[*:1])C(=O)[*:2]; X3 = CC(C)C[C@H](N[*:1])C(=S)N[C@H](CC(C)C)C(=O)[*:2]; NMeL = CN[C@@H](CC(C)C)C(=O)O
parameter: log10(clearance) (log10 of the value in mL/min/kg)
Values reflect log10 of reported clearance (mL/min/kg).

// recorded log10(clearance) for CC(C)C[C@@H]1NC(=O)[C@H](Cc2ccc(O)cc2)NC(=O)[C@H]2CCCN2C(=O)[C@H](CC(C)C)NC(=O)[C@H](CC(C)C)N(C)C(=O)[C@@H](CC(C)C)NC1=O [10h] (cyclo(L[dL][NMeL]L[dP]Y)) : 1.90

// recorded log10(clearance) for CC(C)C[C@@H]1NC(=O)[C@@H](CC(C)C)NC(=S)[C@H](CC(C)C)NC(=O)[C@H](Cc2ccc(O)cc2)NC(=O)[C@H]2CCCN2C(=O)[C@H](CC(C)C)NC1=O [10f] (cyclo(LL[dP]Y[X3])) : 1.63

// recorded log10(clearance) for CC(C)C[C@@H]1NC(=O)[C@H](Cc2ccc(O)cc2)NC(=O)[C@H]2CCCN2C(=O)[C@H](CC(C)C)NC(=O)[C@H](CC(C)C)NC(=O)[C@@H](CC(C)C)NC1=O [compound 10, cyclo(-D-Leu^1-Leu-Leu-D-Pro-Tyr-Leu^6-)] (cyclo(LL[dP]YL[dL])) : 1.45

// recorded log10(clearance) for CC(C)C[C@@H]1NC(=O)[C@@H](CC(C)C)NC(=O)[C@H](CC(C)C)N(C)C(=O)[C@H](Cc2ccc(O)cc2)NC(=O)[C@H]2CCCN2C(=O)[C@H](CC(C)C)NC1=O [10k] (cyclo(LL[dP]Y[NMeL][dL])) : 1.52

// recorded log10(clearance) for CC(C)C[C@@H]1NC(=O)[C@H](Cc2ccc(O)cc2)NC(=O)[C@H]2CCCN2C(=O)[C@H](CC(C)C)NC(=O)[C@H](CC(C)C)NC(=S)[C@@H](CC(C)C)NC1=O [10a] (cyclo(L[dP]YL[X2])) : 1.96

// recorded log10(clearance) for CC(C)C[C@@H]1NC(=O)[C@@H](CC(C)C)NC(=O)[C@H](CC(C)C)NC(=S)[C@H](Cc2ccc(O)cc2)NC(=O)[C@H]2CCCN2C(=O)[C@H](CC(C)C)NC1=O [10e] (cyclo(LL[dP][X1][dL])) : 0.88
